Where do these numbers come from? They come from PubChem BioAssay AID1159580.

- assay: chemical genetic growth profiling, strain panel (AID 1159580);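 further: tested at 20 µM; growth read once vehicle control cultures reached saturation at 30 °C; 1 = growth at the plate median or of vehicle wells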
- measurementContext: S. cerevisiae deletion strains, growth OD, locus YBL105C, strain PKC1, stronger effect = lower value
About 2,000 (36%) of roughly 5,500 compounds were called active. Inconclusive results (about 18%) are left out. Some of the results follow.
normalized growth by entry:
Form rule: numeric answer, no unit written next to it.

Some molecules with recorded normalized growth:
[
  {
    "compoundStructureString": "O=[N+]([O-])c1ccc(ON=C2CCCCC2)c([N+](=O)[O-])c1",
    "normalized growth": 0.998
  },
  {
    "compoundStructureString": "CC(C)c1ccc(COC(=O)Nc2ccc(CSc3ccc(Cl)cc3)o2)cc1",
    "normalized growth": 0.992
  },
  {
    "compoundStructureString": "N/C(CCSc1ccc(Cl)cc1)=N/OC(=O)Nc1ccc(Cl)cc1",
    "normalized growth": 0.986
  },
  {
    "compoundStructureString": "O=C(ON=C1CCCCC1)c1ccc([N+](=O)[O-])cc1",
    "normalized growth": 0.959
  },
  {
    "compoundStructureString": "Fc1cc(I)ccc1Nc1ccnc2cc(Cl)ccc12",
    "normalized growth": 0.975
  },
  {
    "compoundStructureString": "Cc1ccc(Nc2ccnc3cc(Cl)ccc23)cc1F",
    "normalized growth": 0.993
  }
]

Next molecule, normalized growth to be filled in.
Enquiry: Quick one: normalized growth of Oc1c(Cl)cc(Cl)cc1C=Nc1nc(-c2ccc3ccccc3c2)cs1 ?
Return: 0.966

====

- assay: chemical genetic growth profiling, strain panel (AID 1159580)
- measurementContext: S. cerevisiae deletion strains, growth OD, locus YOR106W, strain vam3, stronger effect = lower value
Screen size: about 5,500 compounds; about 2,000 (36%) were called active. Inconclusive results (about 18%) are left out. The list shows a part of the results.
normalized growth by entry:
Form rule: numeric answer, no unit written next to it.

Some compounds with recorded normalized growth:
[
  {
    "compound": "O=c1cccc2ccc(O)c(O)c2c1O",
    "assayValue": 0.592
  },
  {
    "compound": "CC[C@@H](C(=O)C(C)[C@@H](O)[C@H](C)CCc1ccc(C)c(O)c1C(=O)O)C1OC(CC)(C2CC[C@](O)(CC)[C@H](C)O2)C[C@@H]1C (some centres undefined)",
    "assayValue": 0.557
  },
  {
    "compound": "O=C(/C=C/c1ccc(O)c(O)c1)OCCc1ccccc1",
    "assayValue": 0.573
  }
]

Next compound, normalized growth to be filled in.
Enquiry: Quick one: normalized growth of CN1C2CCC1CC(OC(c1ccccc1)c1ccccc1N)C2 (centres undefined) ?
Return: 1.01

====

- assay: chemical genetic growth profiling, strain panel (AID 1159580)
- measurementContext: S. cerevisiae deletion strains, growth OD, locus YNL250W, strain rad50
Out of some 5,500 compounds screened, about 2,000 (36%) were called active. Inconclusive results (about 18%) are left out. Cut-off read from the data, not from the text of the source: active = normalized growth mostly below about 0.91 (no sharp cut-off); inconclusive = no clear call, values can overlap the other calls; inactive = mostly above about 0.92. The list shows a part of the results.
Log the outcome using a class from y for active, n for inactive

Known results for molecules:
[
  {
    "molecule": "CC1CCc2cc(F)cc3c(=O)c(C(=O)O)cn1c23 (stereo unspecified)",
    "answerLabel": "n"
  },
  {
    "molecule": "C[n+]1c2cc(N)ccc2cc2ccc(N)cc21",
    "answerLabel": "y"
  },
  {
    "molecule": "Oc1cc(O)c2c(c1)O[C@H](c1ccc(O)c(O)c1)[C@@H](O)C2",
    "answerLabel": "n"
  },
  {
    "molecule": "COc1ccc2c(c1)OC1(O)COc3cc(OC)c(OC)cc3C1=C2 (stereo unspecified)",
    "answerLabel": "n"
  },
  {
    "molecule": "CCn1cc(C(=O)O)c(=O)c2cc(F)c(N3CCNC(C)C3)c(F)c21 (stereo unspecified)",
    "answerLabel": "n"
  }
]

Enquiry: // outcome(item) with item = CCN1CCCC(OC(=O)C(c2ccccc2)c2ccccc2)C1 (stereo unspecified)
Return: n

Enquiry: // outcome(item) with item = CCCCNC(=O)NS(=O)(=O)c1ccc(C)cc1
Return: n

Enquiry: // outcome(item) with item = CCN(CC)C(=O)N1CCN(C)CC1
Return: n

Enquiry: // outcome(item) with item = COC(=O)[C@@H]1OC(=O)C2OC23[C@@]1(C)CCC1[C@]2(C)C(C[C@H](O)[C@]13C)C(C)(C)[C@H](OC(C)=O)C[C@@H]2OC(C)=O (stereo partly specified)
Return: n

Enquiry: // outcome(item) with item = CC1COc2c(N3CCN(C)CC3)c(F)cc3c(=O)c(C(=O)O)cn1c23 (stereo unspecified)
Return: n

Enquiry: // outcome(item) with item = c1ccc2c(c1)CCCC2C1=NCCN1 (stereo unspecified)
Return: n

Enquiry: // outcome(item) with item = Oc1ccc2c(c1)O[C@H](c1ccc(O)c(O)c1)[C@@H](O)C2
Return: n

Enquiry: // outcome(item) with item = NCCC(O)C(=O)NC1CC(N)C(OC2OC(CN)C(O)C(O)C2N)C(OC2OC(CO)C(O)C2O)C1O (stereo unspecified)
Return: n

Enquiry: // outcome(item) with item = O=C(Oc1cc(O)cc2c1C[C@@H](OC(=O)c1cc(O)c(O)c(O)c1)[C@@H](c1cc(O)c(O)c(O)c1)O2)c1cc(O)c(O)c(O)c1
Return: n

Enquiry: // outcome(item) with item = Cc1[nH]c2ccccc2c1CN(C)C
Return: n

Enquiry: // outcome(item) with item = O=C(O[C@@H]1Cc2c(O)cc(O)cc2O[C@@H]1c1ccc(O)c(O)c1)c1cc(O)c(O)c(O)c1
Return: n

====

- assay: chemical genetic growth profiling, strain panel (AID 1159580);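 further: tested at 20 µM; growth read once vehicle control cultures reached saturation at 30 °C; 1 = growth at the plate median or of vehicle wells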
- measurementContext: S. cerevisiae deletion strains, growth OD, locus YJL164C, strain tpk1
About 2,000 (36%) of roughly 5,500 compounds were called active. About 18% were inconclusive and are not listed. No stated cut-off is given here; in the data, active means normalized growth mostly below about 0.91 (no sharp cut-off); inconclusive means no clear call, values can overlap the other calls; inactive means mostly above about 0.92. The list shows a part of the results.
Log the outcome using a class from true (1) for active, false (0) for inactive

Known results for compounds:
[
  {
    "compound": "COc1cc(CNC(=O)CCCC/C=C/C(C)C)ccc1O",
    "answerLabel": "false (0)"
  },
  {
    "compound": "C=C1C2CC[C@@]3(C)[C@H](c4ccoc4)OC(=O)C[C@]13O[C@H]1CC(=O)C(C)(C)[C@H](C(OC(C)=O)C(=O)OC)[C@@]21C (stereo partly specified)",
    "answerLabel": "false (0)"
  },
  {
    "compound": "CN1CC(=O)N=C1N",
    "answerLabel": "false (0)"
  }
]

Attention now shifts to the item below.
Enquiry: // outcome(item) with item = CC1(C)S[C@@H]2[C@H](NC(=O)[C@H](N)c3ccccc3)C(=O)N2[C@H]1C(=O)O
Return: false (0)

====

- assay: chemical genetic growth profiling, strain panel (AID 1159580);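 further: tested at 20 µM; growth read once vehicle control cultures reached saturation at 30 °C; 1 = growth at the plate median or of vehicle wells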
- measurementContext: S. cerevisiae deletion strains, growth OD, locus YMR223W, strain ubp8
Screen size: about 5,500 compounds; about 2,000 (36%) were called active. Roughly 18% stayed inconclusive and do not appear here. Rule as the data show it: active = normalized growth mostly below about 0.91 (no sharp cut-off); inconclusive = no clear call, values can overlap the other calls; inactive = mostly above about 0.92. The list shows a part of the results.
Log the outcome using a class from active, inactive

Known results for compounds:
[
  {
    "compound": "COc1cc2c(cc1OC)C(=O)c1ccc(OC)c(OC)c1OCC(=O)C2",
    "answerLabel": "inactive"
  },
  {
    "compound": "O=c1c(-c2ccc(O)cc2)coc2cc(O)ccc12",
    "answerLabel": "inactive"
  },
  {
    "compound": "C[C@]12CCC(=O)C=C1C=CC1C2CC[C@@]2(C)C1CC[C@@]21CCC(=O)O1 (some centres not stated)",
    "answerLabel": "inactive"
  }
]

Enquiry: // outcome(item) with item = CCCCC[C@H]1C(=O)O[C@H](C)[C@H](NC(=O)c2cccc(NC=O)c2O)C(=O)O[C@@H](C)[C@@H]1OC(=O)CC(C)C
Return: active

====

- assay: chemical genetic growth profiling, strain panel (AID 1159580);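 further: tested at 20 µM; growth read once vehicle control cultures reached saturation at 30 °C; 1 = growth at the plate median or of vehicle wells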
- measurementContext: S. cerevisiae deletion strains, growth OD, locus YLR320W, strain mms22, stronger effect = lower value
Among all 5,500 compounds or so, about 2,000 (36%) were called active. Inconclusive results (about 18%) are left out. Some of the results follow.
assayEndpoint: normalized growth
Form rule: numeric answer, no unit written next to it.

Some compounds with recorded normalized growth:
[
  {
    "compound": "Oc1ccc2c(c1)O[C@H](c1ccc(O)c(O)c1)[C@@H](O)C2",
    "normalized growth": 1.05
  },
  {
    "compound": "CC1(O)CC2C(CC1O)C2(C)C (stereo unspecified)",
    "normalized growth": 0.994
  },
  {
    "compound": "C=CCCCCCCCCCCCc1ccco1",
    "normalized growth": 0.621
  },
  {
    "compound": "CN(C)CCOC(c1ccc(Cl)cc1)c1ccccn1 (stereo unspecified)",
    "normalized growth": 1
  },
  {
    "compound": "CN1CC(=O)N=C1N",
    "normalized growth": 1.07
  },
  {
    "compound": "O=C(c1ccc(OCCN2CCCCC2)cc1)c1c(-c2ccc(O)cc2)sc2cc(O)ccc12",
    "normalized growth": 0.911
  },
  {
    "compound": "O=C(NC(=O)c1ccccc1Cl)Nc1ccc(OC(F)(F)F)cc1",
    "normalized growth": 1.06
  },
  {
    "compound": "COc1ccc2c(c1)OC1(O)COc3cc(OC)c(OC)cc3C1=C2 (stereo unspecified)",
    "normalized growth": 0.925
  },
  {
    "compound": "C#CCCCCCCCCCCCc1ccco1",
    "normalized growth": 0.932
  },
  {
    "compound": "CC[C@@H]1C=C/C=C/C[C@H](C)[C@@H](O)[C@](C)(O)C(=O)[C@H](C)[C@@H](O)[C@H](C)C(=O)[C@H](C)[C@@H](O)[C@H](C)/C=C/C(=O)O[C@H]2[C@@H](C)[C@@H](CC1)O[C@@]1(CC[C@@H](C)[C@@H](C[C@H](C)O)O1)[C@@H]2C",
    "normalized growth": 0.984
  }
]

Enquiry: Quick one: normalized growth of C[C@]12CCC(=O)C=C1C=CC1C2CC[C@@]2(C)C1CC[C@@]21CCC(=O)O1 (stereo partly specified) ?
Return: 0.9

Enquiry: Quick one: normalized growth of CN1C2CCC1CC(OC(c1ccccc1)c1ccccc1N)C2 (stereo unspecified) ?
Return: 0.994

Enquiry: Quick one: normalized growth of C[n+]1c2cc(N)ccc2cc2ccc(N)cc21 ?
Return: 0.191

Enquiry: Quick one: normalized growth of Cc1ccccc1C(OCCN(C)C)c1ccccc1 (stereo unspecified) ?
Return: 1.02

Enquiry: Quick one: normalized growth of COc1ccc([C@H]2Oc3c(I)c(OC)cc(OC)c3C[C@@H]2O)cc1OC ?
Return: 1.03
